# Target Or Test System: recombinant full-length human alpha synuclein monomer (human, UniProt P37840 1-140)
# Protocol Notes: SPR, Biacore T200, as in Example 3; Fab injected;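 note: ligands amine-coupled on CM5 chip flow cells, HBS-EP+ running buffer, kinetic data fitted with 1:1 model allowing local bulk contribution and global Rmax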
# koff per entry
Readout Kind: koff (s⁻¹)

binder="6470 rabbit Fab with heavy chain mutation H31R (Fab, V domains shown) VH: QSVEESGGRLVTPGTPLTLTCTVSGIDLSSRDMYWVRQAPGKGLEYIGAIYASGSTYYASWAKGRFTISKTSTTVDLKMTSLTTEDTATYFCARIHYGNSGGLWGQGTLVTVSS VL: AIVMTQTPSSKSVAVGDTVTINCQASQSVYKNNYLAWFQQKPGQPPKQLIYGASTLASGVPSRFKGSGSGTQFTLTISDVVCDDAATYYCAGYKGGRNDGFAFGGGTEVVVKR" numeric_result=0.44
binder="6470 rabbit Fab with light chain mutation N33K (Fab, V domains shown) VH: QSVEESGGRLVTPGTPLTLTCTVSGIDLSSHDMYWVRQAPGKGLEYIGAIYASGSTYYASWAKGRFTISKTSTTVDLKMTSLTTEDTATYFCARIHYGNSGGLWGQGTLVTVSS VL: AIVMTQTPSSKSVAVGDTVTINCQASQSVYKNKYLAWFQQKPGQPPKQLIYGASTLASGVPSRFKGSGSGTQFTLTISDVVCDDAATYYCAGYKGGRNDGFAFGGGTEVVVKR" numeric_result=0.0433
binder="6470 rabbit Fab with heavy chain mutation S55N (Fab, V domains shown) VH: QSVEESGGRLVTPGTPLTLTCTVSGIDLSSHDMYWVRQAPGKGLEYIGAIYASGNTYYASWAKGRFTISKTSTTVDLKMTSLTTEDTATYFCARIHYGNSGGLWGQGTLVTVSS VL: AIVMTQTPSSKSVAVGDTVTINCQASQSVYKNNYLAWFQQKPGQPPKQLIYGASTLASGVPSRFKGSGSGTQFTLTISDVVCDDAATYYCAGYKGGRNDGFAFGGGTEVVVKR" numeric_result=0.0191
